# TARGET: rnADAMTS-5 (1-564-6H) (Rattus norvegicus (Rat), UniProt Q6TY19)
# Sequence (Q6TY19 entry or part of it): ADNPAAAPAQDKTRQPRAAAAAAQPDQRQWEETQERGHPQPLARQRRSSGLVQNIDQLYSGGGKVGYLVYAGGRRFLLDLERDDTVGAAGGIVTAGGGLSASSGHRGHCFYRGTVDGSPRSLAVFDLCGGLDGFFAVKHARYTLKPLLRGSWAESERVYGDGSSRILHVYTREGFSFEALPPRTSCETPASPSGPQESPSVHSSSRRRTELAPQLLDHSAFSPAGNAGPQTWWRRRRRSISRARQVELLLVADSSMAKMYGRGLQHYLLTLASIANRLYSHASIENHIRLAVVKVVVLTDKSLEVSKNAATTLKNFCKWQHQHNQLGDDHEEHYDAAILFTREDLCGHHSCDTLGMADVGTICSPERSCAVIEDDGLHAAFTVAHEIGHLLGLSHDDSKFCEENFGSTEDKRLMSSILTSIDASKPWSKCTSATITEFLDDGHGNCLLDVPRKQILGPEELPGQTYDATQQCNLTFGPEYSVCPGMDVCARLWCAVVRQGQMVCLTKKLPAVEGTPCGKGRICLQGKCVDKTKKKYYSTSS
Overview of reported IC50 across a group of compounds:

Example results:
| COMPOUND | RESULT |
| --- | --- |
| O=C1NC(=O)C(CCC(=O)N2CCC(c3cc(Cl)cc(Cl)c3)CC2)(C2CC2)N1 (stereo not shown) | 50 to 100 nM |
| Cc1cccc(C2CCN(C(=O)[C@@H](C)C[C@@]3(C)NC(=O)NC3=O)CC2)c1 (stereo in doubt) | 25 to 50 nM |
| O=C1NC(=O)C(CCC(=O)N2CCC(c3ccccc3)CC2)(C2CC2)N1 (stereo not shown) | 50 to 100 nM |
| C[C@@H](C[C@@]1(C)NC(=O)NC1=O)C(=O)N1CCC(c2cc(Cl)cc(Cl)c2)CC1 (stereo in doubt) | 25 to 50 nM |
| C[C@@H](C[C@@]1(C)NC(=O)NC1=O)C(=O)N1CCC(c2ccc(Cl)cc2)CC1 (stereo in doubt) | 50 to 100 nM |
| C[C@@H](C[C@@]1(C)NC(=O)NC1=O)C(=O)N1CCC(c2cccc(Cl)c2)CC1 (stereo in doubt) | 0.001 to 25 nM |

Proceeding to the next compound to report its IC50.
Any idea what IC50 was measured for C[C@@H](C[C@@]1(C)NC(=O)NC1=O)C(=O)N1CCC(c2cccc(F)c2)CC1 (stereo in doubt) ? 0.001 to 25 nM

* * *

pIC50: −log10 of the molar value.
# collection of pIC50 values tested on human ADAMTS6 (Homo sapiens (Human), UniProt Q9UKP5)
# Sequence (Q9UKP5 other isoform, or with tags, fused parts or gaps): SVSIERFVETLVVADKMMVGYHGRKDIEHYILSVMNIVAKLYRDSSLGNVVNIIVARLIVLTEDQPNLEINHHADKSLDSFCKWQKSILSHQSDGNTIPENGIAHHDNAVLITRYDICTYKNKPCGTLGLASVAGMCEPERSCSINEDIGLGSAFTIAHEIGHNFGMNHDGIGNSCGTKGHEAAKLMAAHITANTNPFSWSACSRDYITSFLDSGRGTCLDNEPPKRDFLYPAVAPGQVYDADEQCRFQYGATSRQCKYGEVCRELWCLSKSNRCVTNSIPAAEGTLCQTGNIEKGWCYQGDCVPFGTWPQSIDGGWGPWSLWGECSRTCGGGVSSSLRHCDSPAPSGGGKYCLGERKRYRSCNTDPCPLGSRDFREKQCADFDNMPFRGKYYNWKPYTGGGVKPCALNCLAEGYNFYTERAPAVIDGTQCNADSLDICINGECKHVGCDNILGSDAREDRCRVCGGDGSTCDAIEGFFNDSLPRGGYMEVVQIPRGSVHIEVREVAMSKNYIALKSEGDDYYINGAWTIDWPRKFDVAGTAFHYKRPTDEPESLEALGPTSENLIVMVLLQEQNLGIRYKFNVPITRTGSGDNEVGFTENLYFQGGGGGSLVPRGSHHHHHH

| MOLECULE | pIC50 |
| --- | --- |
| COc1ccc(C2CCN(C(=O)CCC3(C)NC(=O)NC3=O)CC2)cc1 (centres unmarked) | < 7.00 |
| COC[C@]1(C[C@H](C)C(=O)N2CCC(c3cc(Cl)c(F)cc3OC)CC2)NC(=O)NC1=O (stereo in doubt) | 7.60 to 12.00 |
| O=C1NC(=O)C(CCC(=O)N2CCC(c3ccccc3)CC2)(c2ccccc2)N1 (centres unmarked) | < 7.00 |
| Cc1ccccc1C1CCN(C(=O)CC[C@H]2NC(=O)NC2=O)CC1 | < 7.00 |
| CC1(CCC(=O)N2CCC(c3ccc(Cl)cc3)CC2)NC(=O)NC1=O (centres unmarked) | 7.00 to 7.30 |
| CCc1cc(C2CCN(C(=O)CC[C@H]3NC(=O)NC3=O)CC2)cc(OC)c1Cl | 7.60 to 12.00 |

Any idea what pIC50 was measured for COC[C@]1(C[C@H](C)C(=O)N2CCC(c3ccc(Cl)cc3OC)CC2)NC(=O)NC1=O (stereo in doubt) ? 7.60 to 12.00

Any idea what pIC50 was measured for O=C1NC(=O)C(CCC(=O)N2CCC(c3ccccc3)CC2)(C2CC2)N1 (centres unmarked) ? < 7.00

Any idea what pIC50 was measured for Cc1ccccc1C1CCN(C(=O)CCC2(C)NC(=O)NC2=O)CC1 (centres unmarked) ? < 7.00

Any idea what pIC50 was measured for C[C@@H](C[C@@]1(C)NC(=O)NC1=O)C(=O)N1CCC(c2cccc(Cl)c2)CC1 (stereo in doubt) ? 7.30 to 7.60

Any idea what pIC50 was measured for COc1cc(C2CCN(C(=O)CCC3(C)NC(=O)NC3=O)CC2)ccc1F (centres unmarked) ? 7.00 to 7.30

Any idea what pIC50 was measured for COc1c(Cl)cccc1C1CCN(C(=O)CC[C@@]2(C)NC(=O)NC2=O)CC1 ? < 7.00

Any idea what pIC50 was measured for COc1cc(C2CCN(C(=O)CC[C@@]3(C)NC(=O)NC3=O)CC2)cc(Cl)c1F ? 7.60 to 12.00

Any idea what pIC50 was measured for COc1cc(C2CCN(C(=O)CC[C@@]3(C)NC(=O)NC3=O)CC2)cc(OC)c1F ? 7.60 to 12.00

Any idea what pIC50 was measured for COc1cc(C2CCN(C(=O)CCC3(C)NC(=O)NC3=O)CC2)cc(F)c1F (centres unmarked) ? 7.60 to 12.00

Any idea what pIC50 was measured for COc1cc(F)c(Cl)cc1C1CCN(C(=O)CC[C@@]2(C)NC(=O)NC2=O)CC1 ? 7.30 to 7.60

# credit: patent US10550100B2
